# Subject Of Test: Melatonin receptor type 1B (Homo sapiens, UniProt P49286)
# Sequence (P49286 whole entry): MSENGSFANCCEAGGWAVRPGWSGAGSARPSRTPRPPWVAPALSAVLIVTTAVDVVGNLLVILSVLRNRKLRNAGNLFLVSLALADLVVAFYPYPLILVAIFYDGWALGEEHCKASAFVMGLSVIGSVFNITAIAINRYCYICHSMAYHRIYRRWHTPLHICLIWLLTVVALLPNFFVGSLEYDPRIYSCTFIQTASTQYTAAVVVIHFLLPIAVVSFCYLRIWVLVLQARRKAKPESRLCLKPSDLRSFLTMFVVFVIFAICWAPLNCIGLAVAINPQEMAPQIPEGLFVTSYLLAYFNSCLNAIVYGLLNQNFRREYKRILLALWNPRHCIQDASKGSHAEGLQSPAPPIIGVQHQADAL
# Procedure Details: Displacement of 2-[125I]iodomelatonin from human MT2 receptor expressed in CHO cells by gamma counting
# Format: cell-based
# Test Conditions: read-out: pKi (converted)
Would you mind telling me the reported Ki of each entry?
I only need the number, in nM, no unit after it.

Q: # returns recorded Ki (system: Melatonin receptor type 1B (Homo sapiens, UniProt P49286)) for `CCN(C)Cc1[nH]c2ccc(OC)cc2c1CCNC(C)=O`
Result: 224

Q: Would you kindly repeat that for `CCCC(=O)NCCc1c2n(c3ccccc13)CCN(C)C2` ?
Result: 85.1

Q: Would you kindly repeat that for `COc1ccc2c(c1)c(CCNC(C)=O)c1n2CCN(C)C1` ?
Result: 7.76

Q: Would you kindly repeat that for `COc1ccc2[nH]c(CN(C)c3ccc(Cl)cc3)c(CCNC(C)=O)c2c1` ?
Result: 42.7

Q: Would you kindly repeat that for `COc1ccc2c(c1)c(CCNC(C)=O)c1n2CCCN(C)C1` ?
Result: 891

Q: Would you kindly repeat that for `CCCC(=O)NCCc1c2n(c3ccc(OC)cc13)CCN(C)C2` ?
Result: 6.92

Q: Would you kindly repeat that for `COc1ccc2[nH]c(CN(C)Cc3ccccc3)c(CCNC(C)=O)c2c1` ?
Result: 661

Q: Would you kindly repeat that for `COc1ccc2[nH]c(CN(C)c3ccccc3)c(CCNC(C)=O)c2c1` ?
Result: 2.29
